tested on: N87; assay: In vitro tumor cell proliferation assay (Cell Titer-Glo) in N87 cells; format: cell-based; conditions: N87 human gastric carcinoma overexpressing HER2 and HER1; 72 hours exposure; read-out: IC50, activities in N87 cell lines
pIC50: −log10 of the molar value.
PROPERTY_LABEL: pIC50

>>> print(df.to_string())
                         structure_notation  property_label   value
0  CCN(C/C=C/C(=O)N1CCc2c(sc3ncnc(Nc4ccc(OCc5ccccn5)c(Cl)c4)c23)C1)C(C)C           pIC50  > 6.70

Tell me the measured pIC50 of CN(C)C/C=C/C(=O)N1CCc2c(sc3ncnc(Nc4ccc5c(ccn5Cc5ccccc5)c4)c23)C1 , please.
> 6.70
